These entries and their values trace back to ChEMBL document CHEMBL1201862.

Target: Trace amine-associated receptor 1 (Homo sapiens, UniProt Q96RJ0)
Sequence (Q96RJ0 whole entry): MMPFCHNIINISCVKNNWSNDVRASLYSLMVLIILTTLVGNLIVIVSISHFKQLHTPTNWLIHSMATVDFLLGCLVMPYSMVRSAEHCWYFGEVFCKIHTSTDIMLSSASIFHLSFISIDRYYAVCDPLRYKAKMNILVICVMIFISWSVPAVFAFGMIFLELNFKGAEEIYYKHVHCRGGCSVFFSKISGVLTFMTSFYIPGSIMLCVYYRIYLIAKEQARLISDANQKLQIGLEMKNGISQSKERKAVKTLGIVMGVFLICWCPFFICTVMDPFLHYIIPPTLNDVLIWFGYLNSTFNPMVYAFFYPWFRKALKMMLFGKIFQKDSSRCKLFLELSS
Assay: Fluorescence-based cell-based high throughput dose response assay to identify agonists of the human trace amine associated receptor 1 (TAAR1).
Assay type: functional
The source made the active and inactive calls.
Reported values of EC50 for individual entries

Nc1c(NCCc2ccccc2)c2ccccc2oc1=O : 1860 nM (active)
COc1cccc(OC)c1C(=O)NCCc1ccccc1 : 2640 nM (active)
CC1NC(=O)NC1CCCCCC(=O)NCCc1ccccc1 (stereo not given) : 1930 nM (active)

Q) Value wanted: EC50 (Trace amine-associated receptor 1 (Homo sapiens, UniProt Q96RJ0)) of entry O=C(CCn1c(=S)[nH]c2cc3c(cc2c1=O)OCO3)NCCc1ccccc1Cl
A) 7040 nM (active)

Q) Also Cc1ccsc1/C=N/NC(=O)Cn1nc(C)c([N+](=O)[O-])c1C , if possible.
A) 3790 nM (active)

====

biological target: Coagulation factor XII (Homo sapiens); assay type: functional;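 also: activated factor XIIa alpha cleaving a fluorogenic AMC peptide substrate; inhibitor potency from loss of enzyme activity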
Calls of active or inactive are those of the source.
observable: IC50

Consider the following illustrative entries.
CCCOc1ccc(C(=O)NC(C)C(=O)O)cc1 (centres undefined) : > 50 µM (inactive)
CN(Cc1ccccc1)c1nc2c(c(=O)[nH]c(=O)n2C)n1CCCSc1ncccn1 : > 50 µM (inactive)
CCC(C)NC(=O)C1CN(S(=O)(=O)c2ccccc2)CCN1S(=O)(=O)c1ccccc1 (centres undefined) : > 50 µM (inactive)

Q) I would be grateful if you could share the reported IC50 for COc1ccc(C2=CSC3=NCCN23)cc1F .
A) > 50 µM (inactive)

====

system: H4; test: Luminescence Cell-Based Dose Response HTS to Identify Activators of 5'UTR Stem-Loop Driven Prion Protein mRNA Translation in H4 Neuroglioblastoma Cells. [Related pubchem assays: 1829 (Project Summary), 1814 (Primary HTS)]; assay type: functional; details: Homo sapiens
Active and inactive are the calls of the source.
observable: EC50

Consider the following illustrative entries.
O=C1C(Cl)=C(NCC2CCCO2)C(=O)N1CCc1ccccc1 (configuration not stated) : 13.1 µM (active)
Fc1ccccc1NC(=S)N/N=C/c1ccccc1Br : > 120 µM (not active)
CCOc1c2ccc(C(=O)NCCc3cccs3)cc2nn1CC : > 120 µM (not active)
Cn1c(S)nnc1CCCOc1ccc(Cl)cc1Cl : 7.51 µM (active)
O=c1n(-c2ccc(Br)cc2)cnn1-c1ncccc1[N+](=O)[O-] : 17.3 µM (active)

Q) I would be grateful if you could share the reported EC50 for Fc1cccc(/C=N/Nc2[nH]cnc3ncnc2-3)c1 .
A) > 120 µM (not active)

Q) Also O=C(c1cnsn1)N1CCC(CO)(Cc2cccc(F)c2)CC1 , if possible.
A) 75.8 µM (active)
